Data credit: PubChem BioAssay (NCI)

assay: NCI Yeast Anticancer Drug Screen. Data for the mec2-1 strain (AID 157); conditions: S. cerevisiae mec2-1 strain, at 50.0 µM, active compounds read high
Compounds without any hit were thinned out: in the full panel of roughly 79,000, 15% have a hit.
As shown below, each of these compounds has a reported growth inhibition value.
# output: bare number, implied unit %

A selection of reference data follows.
>  <compound>
NC1=NC2(COC(c3ccccc3)(c3ccccc3)c3ccccc3)OC(COC(c3ccccc3)(c3ccccc3)c3ccccc3)C(O)C2O1 (centres undefined)

>  <unitsLabel>
%

>  <growth inhibition>
-5.4

$$$$
>  <compound>
O=C1c2ccccc2C(=O)c2c(Nc3ccc4c5c(cccc35)C(=O)c3ccccc3-4)cccc21

>  <unitsLabel>
%

>  <growth inhibition>
6.25

$$$$

Ask | Field request: growth inhibition | item: O=C1OC(C(=O)O)Cc2ccccc21 (centres undefined)
Reply | -15.2

Ask | Field request: growth inhibition | item: `COc1cc(OC)c(C(C)=O)c(C(C)=O)c1`
Reply | -13.6

Ask | Field request: growth inhibition | item: `CC(C)c1ccc([N+](=O)[O-])cc1`
Reply | 11.1

Ask | Field request: growth inhibition | item: CCOC(=O)N1CC2CCc3c(ccc4ccccc34)N2C1=O (centres undefined)
Reply | 10.5

Ask | Field request: growth inhibition | item: `CC(C)N(CCC#N)C(=S)Nc1cccc(C(F)(F)F)c1`
Reply | 13.2

Ask | Field request: growth inhibition | item: NC(=O)CC(N)C(N)=O (centres undefined)
Reply | -33.1

Ask | Field request: growth inhibition | item: `Nc1ccc(N2CCN(c3ccc(N)cc3)CC2)cc1`
Reply | -9.95

Ask | Field request: growth inhibition | item: `Cc1ccc([N+](=O)[O-])cc1NC(=O)N(C)Cc1ccc(Cl)cc1`
Reply | 24.2

Ask | Field request: growth inhibition | item: `CCOc1cccc(-c2ccccc2)c1`
Reply | 17.6

Ask | Field request: growth inhibition | item: `CC(C)(c1ccccc1)[Si](c1ccccc1)(c1ccccc1)c1ccccc1`
Reply | -7.05

Ask | Field request: growth inhibition | item: NC(=O)C1CC2CC(Cl)C1C2 (centres undefined)
Reply | -0.1

Ask | Field request: growth inhibition | item: `COc1cc(C(=O)C/C(CCC(=O)Nc2ccccc2[N+](=O)[O-])=N\NC(=O)CC#N)ccc1O`
Reply | -20.8

Ask | Field request: growth inhibition | item: C/C(=N\NC(N)=O)C1CCCc2ccccc21 (centres undefined)
Reply | -15.3

Ask | Field request: growth inhibition | item: `C=CCNC(=O)c1ccccc1OCC(=O)O`
Reply | -37.3

Ask | Field request: growth inhibition | item: CC(C)CCCC(C)C1CCC2C3CC=C4CC(OP(=O)(O)OC5CCC6(C)C(=CCC7C6CCC6(C)C(C(C)CCCC(C)C)CCC76)C5)CCC4(C)C3CCC12C (centres undefined)
Reply | -23.8

Ask | Field request: growth inhibition | item: `CN1CCc2c1nc(-c1ccccc1)c1c2N(C)CC1`
Reply | -11
